Target: BChE from equine serum (Equus caballus)
Construct: BChE (from equine serum)
Experiment: In vitro BChE inhibition, modified Ellman's method
Description: The ability of all prepared compounds to inhibit AChE from electric eel (Electrophorus electricus) and BChE from equine serum (both purchased from Sigma, St. Louis, MO, USA) was determined in vitro using a modified Ellman’s method. […] All tested compounds were dissolved in DMSO (concentration 0.01 M) and diluted in demineralized water (concentrations 0.001 M and 0.0001 M). […] First, v0 was determined. […] The measurement was performed in triplicate at least, and average v0 was determined. […]
pIC50: −log10 of the molar value.
Record fulfilled whenever pIC50 is at 4 or higher; record not fulfilled when lower.

Illustrative cases are given below, each with its answer.
O=C(Nc1ccccc1O)[C@@H]1CCCN1C(=O)OCc1ccccc1 [Compound 9a]    fulfilled
O=C(Nc1cccc(C(F)(F)F)c1)[C@@H]1CCCN1C(=O)OCc1ccccc1 [Compound 7b]    fulfilled
O=C(Nc1ccccc1F)[C@@H]1CCCN1C(=O)OCc1ccccc1 [Compound 4a]    fulfilled
O=C(Nc1ccccc1)[C@@H]1CCCN1C(=O)OCc1ccccc1 [Compound 1]    fulfilled
O=C(Nc1ccccc1Br)[C@@H]1CCCN1C(=O)OCc1ccccc1 [Compound 6a]    fulfilled

### Prompt Evaluate O=C(Nc1ccc(Br)cc1)[C@@H]1CCCN1C(=O)OCc1ccccc1 [Compound 6c] : pIC50 at minimum 4?
### Response fulfilled

### Prompt Confirm if pIC50 reported for the compound O=C(Nc1cccc([N+](=O)[O-])c1)[C@@H]1CCCN1C(=O)OCc1ccccc1 [Compound 8b] is 4 or above.
### Response fulfilled

====

Target: AChE from electric eel (Electrophorus electricus) (Electrophorus electricus, UniProt O42275)
Construct: AChE (from electric eel) and BChE (from equine serum); purchased Sigma, St. Louis, MO, USA; host or cells: electric eel (animal source)
Sequence (O42275 24-633): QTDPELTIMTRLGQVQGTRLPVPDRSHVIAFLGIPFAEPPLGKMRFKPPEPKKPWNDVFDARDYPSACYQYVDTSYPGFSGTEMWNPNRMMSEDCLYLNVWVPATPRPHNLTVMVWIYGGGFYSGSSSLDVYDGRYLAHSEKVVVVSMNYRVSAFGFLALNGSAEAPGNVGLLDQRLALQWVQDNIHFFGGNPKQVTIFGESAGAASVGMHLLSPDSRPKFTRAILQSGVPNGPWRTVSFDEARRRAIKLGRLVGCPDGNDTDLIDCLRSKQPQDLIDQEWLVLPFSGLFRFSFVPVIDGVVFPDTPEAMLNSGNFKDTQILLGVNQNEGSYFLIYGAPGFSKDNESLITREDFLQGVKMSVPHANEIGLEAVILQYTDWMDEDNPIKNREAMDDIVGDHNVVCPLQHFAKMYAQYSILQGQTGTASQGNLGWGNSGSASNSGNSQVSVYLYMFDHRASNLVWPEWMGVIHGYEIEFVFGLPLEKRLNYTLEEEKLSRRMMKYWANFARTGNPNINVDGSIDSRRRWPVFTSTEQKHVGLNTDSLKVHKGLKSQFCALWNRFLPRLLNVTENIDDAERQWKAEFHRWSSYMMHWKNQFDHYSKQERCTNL
Assay: In vitro AChE inhibition, modified Ellman's method
Assay type: biochemical
Recorded IC50 split into classes L (below 80 µM), M (80 µM to below 100 µM), H (100 µM or more)

COc1ccc(NC(=O)[C@@H]2CCCN2C(=O)OCc2ccccc2)cc1 [Compound 2c]    H
O=C(Nc1ccccc1Br)[C@@H]1CCCN1C(=O)OCc1ccccc1 [Compound 6a]    M
O=C(Nc1ccccc1C(F)(F)F)[C@@H]1CCCN1C(=O)OCc1ccccc1 [Compound 7a]    L

# next compound below
### Prompt Exam item: assign O=C(Nc1ccc(C(F)(F)F)cc1)[C@@H]1CCCN1C(=O)OCc1ccccc1 [Compound 7c] to the correct category.
### Response M

====

Biological target: BChE from equine serum (Equus caballus)
Construct: BChE (from equine serum); purchased Sigma, St. Louis, MO, USA; host or cells: equine serum
Experiment: In vitro BChE inhibition, modified Ellman's method
Format: biochemical
Conditions: ratio AChE/BChE; higher = more selective to BChE
VALUE TYPE: SI (index selectivity) = IC50 (AChE)/IC50 (BChE)
Format: numeric value only, no unit, no commentary.

Recorded results for 8 molecules are shown here.
O=C(Nc1ccc(Cl)cc1)[C@@H]1CCCN1C(=O)OCc1ccccc1    0.52
O=C(Nc1ccc([N+](=O)[O-])cc1)[C@@H]1CCCN1C(=O)OCc1ccccc1    1.44
O=C(Nc1ccccc1)[C@@H]1CCCN1C(=O)OCc1ccccc1    1.91
O=C(Nc1cccc(O)c1)[C@@H]1CCCN1C(=O)OCc1ccccc1    1.41
O=C(Nc1cccc(Cl)c1)[C@@H]1CCCN1C(=O)OCc1ccccc1    0.75
O=C(Nc1ccc(Br)cc1)[C@@H]1CCCN1C(=O)OCc1ccccc1    2.88
O=C(Nc1cccc([N+](=O)[O-])c1)[C@@H]1CCCN1C(=O)OCc1ccccc1    1.16
O=C(Nc1ccc(O)cc1)[C@@H]1CCCN1C(=O)OCc1ccccc1    0.68

Could you now look at the following molecule, please?
### Prompt Could you tell me which SI (index selectivity) = IC50 (AChE)/IC50 (BChE) is on file for O=C(Nc1ccc(F)cc1)[C@@H]1CCCN1C(=O)OCc1ccccc1 ?
### Response 1.50

====

Biological target: BChE from equine serum (Equus caballus)
Construct: BChE (from equine serum)
Test: In vitro BChE inhibition, modified Ellman's method
VALUE TYPE: IC50 (µM)
Output spec: scalar in µM, unitless text.

Please review the following examples before continuing.
O=C(Nc1cccc(O)c1)[C@@H]1CCCN1C(=O)OCc1ccccc1    86.2
O=C(Nc1ccc(F)cc1)[C@@H]1CCCN1C(=O)OCc1ccccc1    58.1
Cc1cccc(NC(=O)[C@@H]2CCCN2C(=O)OCc2ccccc2)c1    115
O=C(Nc1cccc(Br)c1)[C@@H]1CCCN1C(=O)OCc1ccccc1    47.7
O=C(Nc1ccccc1Cl)[C@@H]1CCCN1C(=O)OCc1ccccc1    53.5
O=C(Nc1ccc(C(F)(F)F)cc1)[C@@H]1CCCN1C(=O)OCc1ccccc1    75.5

Attention now turns to another entry.
### Prompt Look at this molecule and give its reported IC50. O=C(Nc1ccccc1[N+](=O)[O-])[C@@H]1CCCN1C(=O)OCc1ccccc1
### Response 48.7

====

Target: BChE from equine serum (Equus caballus, UniProt P81908)
Construct: BChE (from equine serum); purchased Sigma, St. Louis, MO, USA; host or cells: equine serum
Sequence (P81908 whole entry): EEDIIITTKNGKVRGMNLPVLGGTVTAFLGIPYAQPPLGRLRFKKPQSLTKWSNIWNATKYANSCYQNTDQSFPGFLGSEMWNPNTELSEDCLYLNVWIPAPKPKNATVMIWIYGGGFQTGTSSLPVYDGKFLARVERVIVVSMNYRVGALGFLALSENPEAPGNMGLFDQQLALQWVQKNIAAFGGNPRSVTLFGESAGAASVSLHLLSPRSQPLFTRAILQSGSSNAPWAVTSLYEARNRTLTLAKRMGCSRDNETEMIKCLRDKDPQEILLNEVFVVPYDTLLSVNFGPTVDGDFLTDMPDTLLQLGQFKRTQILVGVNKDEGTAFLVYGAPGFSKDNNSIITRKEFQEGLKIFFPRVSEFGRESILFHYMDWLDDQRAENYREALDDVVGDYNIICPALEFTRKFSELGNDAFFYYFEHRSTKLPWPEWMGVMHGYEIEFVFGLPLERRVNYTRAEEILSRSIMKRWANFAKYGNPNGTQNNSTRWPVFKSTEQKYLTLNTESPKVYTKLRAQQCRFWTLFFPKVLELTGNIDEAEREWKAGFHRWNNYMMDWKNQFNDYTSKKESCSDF
Experiment: In vitro BChE inhibition, modified Ellman's method
Assay type: biochemical
Conditions: ratio AChE/BChE; higher = more selective to BChE
VALUE TYPE: SI (index selectivity) = IC50 (AChE)/IC50 (BChE)
Lab note: jot down the number only; don't add units.

Please review the entries below; each comes with its answer.
COc1ccccc1NC(=O)[C@@H]1CCCN1C(=O)OCc1ccccc1    2.54
COc1ccc(NC(=O)[C@@H]2CCCN2C(=O)OCc2ccccc2)cc1    0.93
Cc1ccc(NC(=O)[C@@H]2CCCN2C(=O)OCc2ccccc2)cc1    0.81
COc1cccc(NC(=O)[C@@H]2CCCN2C(=O)OCc2ccccc2)c1    2.16
O=C(Nc1ccccc1Br)[C@@H]1CCCN1C(=O)OCc1ccccc1    3.07

Alright, here's another compound for you.
### Prompt Dear colleague, I am looking for the recorded SI (index selectivity) = IC50 (AChE)/IC50 (BChE) of the following compound: O=C(Nc1ccccc1Cl)[C@@H]1CCCN1C(=O)OCc1ccccc1
### Response 0.87

====

Target: BChE from equine serum (Equus caballus)
Construct: BChE (from equine serum); purchased Sigma, St. Louis, MO, USA; host or cells: equine serum
Test: In vitro BChE inhibition, modified Ellman's method
Assay type: biochemical
Conditions: ratio AChE/BChE; higher = more selective to BChE
Cut-off 1 on SI (index selectivity) = IC50 (AChE)/IC50 (BChE), inclusive. At or above means 1; below means 0.

Solved cases below.
O=C(Nc1ccccc1[N+](=O)[O-])[C@@H]1CCCN1C(=O)OCc1ccccc1    1
O=C(Nc1cccc(F)c1)[C@@H]1CCCN1C(=O)OCc1ccccc1    1
O=C(Nc1ccccc1C(F)(F)F)[C@@H]1CCCN1C(=O)OCc1ccccc1    1
Cc1ccccc1NC(=O)[C@@H]1CCCN1C(=O)OCc1ccccc1    0
O=C(Nc1cccc(C(F)(F)F)c1)[C@@H]1CCCN1C(=O)OCc1ccccc1    1
Cc1cccc(NC(=O)[C@@H]2CCCN2C(=O)OCc2ccccc2)c1    0

// next entry
### Prompt Hi team, for O=C(Nc1ccc(C(F)(F)F)cc1)[C@@H]1CCCN1C(=O)OCc1ccccc1 , is the recorded SI (index selectivity) = IC50 (AChE)/IC50 (BChE) at or above 1?
### Response 1

====

Target: AChE from electric eel (Electrophorus electricus) (Electrophorus electricus, UniProt O42275)
Construct: AChE (from electric eel) and BChE (from equine serum)
Test: In vitro AChE inhibition, modified Ellman's method
VALUE TYPE: pIC50
Remember, pIC50 is on a log scale: it is -log10 of the molar concentration.

These recorded examples may help you get a feel for the data.
Cc1ccccc1NC(=O)[C@@H]1CCCN1C(=O)OCc1ccccc1    4.21
O=C(Nc1cccc(Cl)c1)[C@@H]1CCCN1C(=O)OCc1ccccc1    4.32
O=C(Nc1ccc(Cl)cc1)[C@@H]1CCCN1C(=O)OCc1ccccc1    4.11
Cc1ccc(NC(=O)[C@@H]2CCCN2C(=O)OCc2ccccc2)cc1    3.91

### Prompt Name the reported pIC50 value associated with the molecule O=C(Nc1cccc([N+](=O)[O-])c1)[C@@H]1CCCN1C(=O)OCc1ccccc1
### Response 4.19

### Prompt Look at this molecule and give its reported pIC50. O=C(Nc1ccc([N+](=O)[O-])cc1)[C@@H]1CCCN1C(=O)OCc1ccccc1
### Response 4.07

### Prompt pIC50 for O=C(Nc1cccc(F)c1)[C@@H]1CCCN1C(=O)OCc1ccccc1 ?
### Response 4.16

### Prompt Quick one: pIC50 of O=C(Nc1ccccc1Cl)[C@@H]1CCCN1C(=O)OCc1ccccc1 ?
### Response 4.33

### Prompt Fill blank: measured pIC50 of the molecule COc1cccc(NC(=O)[C@@H]2CCCN2C(=O)OCc2ccccc2)c1 is ____.
### Response 3.90

### Prompt State the recorded pIC50 for this entry: O=C(Nc1ccc(Br)cc1)[C@@H]1CCCN1C(=O)OCc1ccccc1
### Response 4.09

### Prompt Need pIC50 of O=C(Nc1ccccc1F)[C@@H]1CCCN1C(=O)OCc1ccccc1 , thanks.
### Response 4.29

### Prompt Entry O=C(Nc1cccc(O)c1)[C@@H]1CCCN1C(=O)OCc1ccccc1 has what pIC50?
### Response 3.91

### Prompt pIC50 for COc1ccccc1NC(=O)[C@@H]1CCCN1C(=O)OCc1ccccc1 ?
### Response 3.88

### Prompt So what does the record say about pIC50 for O=C(Nc1cccc(Br)c1)[C@@H]1CCCN1C(=O)OCc1ccccc1 ?
### Response 4.13

### Prompt Could you tell me which pIC50 is on file for O=C(Nc1ccc(F)cc1)[C@@H]1CCCN1C(=O)OCc1ccccc1 ?
### Response 4.06

### Prompt Requested read-out: pIC50. Entry: O=C(Nc1ccccc1[N+](=O)[O-])[C@@H]1CCCN1C(=O)OCc1ccccc1
### Response 3.82

Reference for the values: paper PMC6150311
